Target System: TLR7 and TLR8 (Mus musculus) (UniProt P58681+P58682)
Sequence (P58681 whole entry, looked up): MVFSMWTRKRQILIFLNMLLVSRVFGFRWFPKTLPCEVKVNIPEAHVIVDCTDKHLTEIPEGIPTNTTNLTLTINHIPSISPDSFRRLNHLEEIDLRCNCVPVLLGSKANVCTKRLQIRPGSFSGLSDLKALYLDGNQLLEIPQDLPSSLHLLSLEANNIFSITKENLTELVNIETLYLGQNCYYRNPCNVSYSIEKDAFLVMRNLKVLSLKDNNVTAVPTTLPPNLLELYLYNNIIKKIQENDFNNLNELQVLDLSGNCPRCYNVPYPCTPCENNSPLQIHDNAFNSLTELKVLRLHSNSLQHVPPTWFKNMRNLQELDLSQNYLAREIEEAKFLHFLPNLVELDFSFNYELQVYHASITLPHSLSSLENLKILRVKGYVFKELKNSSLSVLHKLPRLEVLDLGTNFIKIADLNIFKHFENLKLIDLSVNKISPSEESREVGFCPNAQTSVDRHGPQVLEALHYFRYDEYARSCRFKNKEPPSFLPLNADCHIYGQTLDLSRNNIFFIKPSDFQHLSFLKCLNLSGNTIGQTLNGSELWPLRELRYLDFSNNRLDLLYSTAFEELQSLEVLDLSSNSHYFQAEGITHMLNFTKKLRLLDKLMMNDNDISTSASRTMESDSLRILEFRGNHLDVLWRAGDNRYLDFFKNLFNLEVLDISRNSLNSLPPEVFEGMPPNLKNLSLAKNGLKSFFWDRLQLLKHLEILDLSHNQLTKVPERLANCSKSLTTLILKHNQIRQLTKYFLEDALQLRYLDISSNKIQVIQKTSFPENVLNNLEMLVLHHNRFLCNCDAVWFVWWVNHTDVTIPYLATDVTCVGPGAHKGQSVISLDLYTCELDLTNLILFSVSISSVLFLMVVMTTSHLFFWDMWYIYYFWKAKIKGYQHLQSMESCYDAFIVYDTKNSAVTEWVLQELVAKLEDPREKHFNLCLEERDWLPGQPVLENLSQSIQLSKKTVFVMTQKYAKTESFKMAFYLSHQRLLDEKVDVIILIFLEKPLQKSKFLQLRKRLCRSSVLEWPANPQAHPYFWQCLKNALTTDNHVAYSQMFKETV
Sequence (P58682 whole entry, looked up): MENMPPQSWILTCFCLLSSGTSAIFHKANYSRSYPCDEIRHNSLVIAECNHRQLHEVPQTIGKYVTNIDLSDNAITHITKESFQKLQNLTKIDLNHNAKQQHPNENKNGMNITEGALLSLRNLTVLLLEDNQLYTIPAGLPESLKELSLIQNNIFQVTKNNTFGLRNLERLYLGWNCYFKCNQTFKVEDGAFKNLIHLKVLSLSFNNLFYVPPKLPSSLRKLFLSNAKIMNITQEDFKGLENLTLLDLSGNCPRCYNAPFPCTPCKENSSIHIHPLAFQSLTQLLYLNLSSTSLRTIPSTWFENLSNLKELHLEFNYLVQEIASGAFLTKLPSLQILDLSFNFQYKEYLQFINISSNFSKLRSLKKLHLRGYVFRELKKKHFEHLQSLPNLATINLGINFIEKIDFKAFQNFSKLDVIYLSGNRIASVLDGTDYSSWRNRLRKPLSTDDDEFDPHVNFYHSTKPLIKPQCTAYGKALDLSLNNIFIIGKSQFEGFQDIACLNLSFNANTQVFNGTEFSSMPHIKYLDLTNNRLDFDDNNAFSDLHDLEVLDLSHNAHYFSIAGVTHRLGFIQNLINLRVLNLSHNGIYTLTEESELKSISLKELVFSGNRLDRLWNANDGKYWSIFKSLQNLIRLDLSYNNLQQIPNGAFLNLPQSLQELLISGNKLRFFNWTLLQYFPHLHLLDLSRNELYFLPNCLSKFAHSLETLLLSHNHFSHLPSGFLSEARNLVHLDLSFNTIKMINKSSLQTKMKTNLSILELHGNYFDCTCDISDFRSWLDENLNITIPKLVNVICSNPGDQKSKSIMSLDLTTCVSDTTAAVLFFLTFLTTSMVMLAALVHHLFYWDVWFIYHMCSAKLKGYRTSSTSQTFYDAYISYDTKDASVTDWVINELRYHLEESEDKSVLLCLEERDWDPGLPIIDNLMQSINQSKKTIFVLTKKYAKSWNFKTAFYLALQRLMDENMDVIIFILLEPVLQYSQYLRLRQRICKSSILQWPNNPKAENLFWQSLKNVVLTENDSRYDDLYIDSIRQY
Assay Name: Agonist activity at TLR7/TLR8 in C57BL/6 mouse BMDC assessed as induction of TNF-alpha production at 30 uM after 3 days by flow cytometric analysis
Type: protein assay
Observable: Activity (pg/mL)

1. CCCCc1nc2c(N)nc3cc(C(=O)OC)ccc3c2n1CC(C)(C)O = 1100

(a) CCCCCc1nc2c(N)nc3cc(C(=O)OC)ccc3c2n1CC(C)(C)O
(b) CCc1nc2c(N)nc3cc(C(=O)OC)ccc3c2n1CC(C)(C)O
(c) COC(=O)c1ccc2c(c1)nc(N)c1nc(C)n(CC(C)(C)O)c12
query: Hey, quick one: sort these by Activity, largest value first please. // respond by listing labels in the order requested
result: a, b, c
(a: 1810 pg/mL, b: 1170 pg/mL, c: 819 pg/mL)

(P) CCCc1nc2c(N)nc3cc(C(=O)OC)ccc3c2n1CC(C)(C)O
(Q) CCCCc1nc2c(N)nc3cc(C(=O)OC)ccc3c2n1CCOCc1ccccc1
query: When their Activity values are compared, which is larger, P or Q ? Pick one and reply with its label.
result: Q
(Q: 2240 pg/mL, P: 1170 pg/mL)

(I) COC(=O)c1ccc2c(c1)nc(N)c1nc(Cc3ccccc3)n(CC(C)(C)O)c12
(II) CC(C)Cn1cnc2c(N)nc3ccccc3c21 [IMIQUIMOD]
(III) CCOCc1nc2c(N)nc3ccccc3c2n1CC(C)(C)O
query: Ordering: ascending Activity. Order the labels as requested and give them as your answer.
result: II, I, III

(1) CCCCc1nc2c(N)nc3cc(C(=O)OC)ccc3c2n1C[C@@H](C)O
(2) COC(=O)c1ccc2c(c1)nc(N)c1ncn(CC(C)(C)O)c12
query: Consider entries 1 and 2 . Which has the numerically lower Activity? Write the label of whichever entry you select.
result: 2
(2: 40 pg/mL, 1: 1160 pg/mL)

---

Target System: TLR7 and TLR8 (Mus musculus) (UniProt P58681+P58682)
Assay Name: Agonist activity at TLR7/TLR8 in C57BL/6 mouse BMDC assessed as induction of IL-1beta production at 30 uM after 3 days by flow cytometric analysis
Format: protein assay
Observable: Activity (pg/mL)

Here's what some known entries look like.
1. COC(=O)c1ccc2c(c1)nc(N)c1ncn(CC(C)(C)O)c12 = 6
2. CCCCc1nc2c(N)nc3cc(C(=O)OC)ccc3c2n1C[C@H](C)O = 301

(I) CCCCc1nc2c(N)nc3cc(C(=O)OC)ccc3c2n1CC(C)O (racemic)
(II) CCCCc1nc2c(N)nc3cc(C(=O)OC)ccc3c2n1CCOCc1ccccc1
query: # returns the entry with the larger Activity; inputs I and II Pick one; state its label.
result: I
(I: 275 pg/mL, II: 104 pg/mL)

---

Target System: TLR7 and TLR8 (Mus musculus) (UniProt P58681+P58682)
Assay Name: Agonist activity at TLR7/TLR8 in C57BL/6 mouse BMDC assessed as induction of IL-12p40 production at 30 uM after 3 days by flow cytometric analysis
Format: protein assay
Observable: Activity (pg/mL)

Worked examples, 2 compounds total:
1) CCCCc1nc2c(N)nc3cc(C(=O)OC)ccc3c2n1C[C@@H](C)O = 416
2) COC(=O)c1ccc2c(c1)nc(N)c1ncn(CC(C)(C)O)c12 = 8

(a) CCCCCc1nc2c(N)nc3cc(C(=O)OC)ccc3c2n1CC(C)(C)O
(b) CCCCc1nc2c(N)nc3cc(C(=O)OC)ccc3c2n1C[C@H](C)O
query: Two entries are listed, a and b . Which one carries the higher Activity? Returns: label corresponding to the selected item.
result: b

---

Target System: TLR7 and TLR8 (Mus musculus) (UniProt P58681+P58682)
Assay Name: Agonist activity at TLR7/TLR8 in C57BL/6 mouse BMDC assessed as induction of IL-10 production at 30 uM after 3 days by flow cytometric analysis
Format: protein assay
Observable: Activity (pg/mL)

Past entries and their recorded results:
1. CCCc1nc2c(N)nc3cc(C(=O)OC)ccc3c2n1CC(C)(C)O = 23
2. CCCCc1nc2c(N)nc3cc(C(=O)OC)ccc3c2n1C[C@H](C)O = 25
3. CCCCCc1nc2c(N)nc3cc(C(=O)OC)ccc3c2n1CC(C)(C)O = 37
4. CCc1nc2c(N)nc3cc(C(=O)OC)ccc3c2n1CC(C)(C)O = 24
5. CCCCc1nc2c(N)nc3cc(C(=O)OC)ccc3c2n1CC(C)O (racemic) = 22

(I) CCCCc1nc2c(N)nc3cc(C(=O)OC)ccc3c2n1CCOCc1ccccc1
(II) CC(C)Cn1cnc2c(N)nc3ccccc3c21 [IMIQUIMOD]
query: Endpoint returns the identifier whose Activity is numerically larger, either I or II . In your reply, give the label of the chosen option.
result: I
(I: 25 pg/mL, II: 17 pg/mL)

---

Target System: TLR7 and TLR8 (Mus musculus) (UniProt P58681+P58682)
Assay Name: Agonist activity at TLR7/TLR8 in C57BL/6 mouse BMDC assessed as induction of IL-10 production at 30 uM after 3 days by flow cytometric analysis
Assay type: protein assay
Observable: Activity (pg/mL)

1. CCCCc1nc2c(N)nc3cc(C(=O)OC)ccc3c2n1CCO = 18
2. CCCCc1nc2c(N)nc3cc(C(=O)OC)ccc3c2n1C[C@@H](C)O = 20
3. COC(=O)c1ccc2c(c1)nc(N)c1ncn(CC(C)(C)O)c12 = 9

(A) COC(=O)c1ccc2c(c1)nc(N)c1nc(C)n(CC(C)(C)O)c12
(B) COC(=O)c1ccc2c(c1)nc(N)c1nc(Cc3ccccc3)n(CC(C)(C)O)c12
(C) CCOCc1nc2c(N)nc3ccccc3c2n1CC(C)(C)O
query: Arrange the 3 entries by Activity so the values rise. # answer = labels listed in requested order
result: B, A, C
(B: 15 pg/mL, A: 27 pg/mL, C: 49 pg/mL)

---

Target System: TLR7 and TLR8 (Mus musculus) (UniProt P58681+P58682)
Assay Name: Agonist activity at TLR7/TLR8 in C57BL/6 mouse BMDC assessed as induction of IL-1beta production at 30 uM after 3 days by flow cytometric analysis
Type: protein assay
Observable: Activity (pg/mL)

(a) CCCCc1nc2c(N)nc3cc(C(=O)OC)ccc3c2n1C[C@@H](C)O
(b) COC(=O)c1ccc2c(c1)nc(N)c1nc(Cc3ccccc3)n(CC(C)(C)O)c12
query: Hi there, can you help? I need to know whether a or b has lower measured Activity. Your answer should be the label attached to the chosen record.
result: b
(b: 60 pg/mL, a: 157 pg/mL)

(I) CCCCc1nc2c(N)nc3cc(C(=O)OC)ccc3c2n1CC(C)(C)O
(II) COC(=O)c1ccc2c(c1)nc(N)c1nc(C)n(CC(C)(C)O)c12
(III) CCCCCc1nc2c(N)nc3cc(C(=O)OC)ccc3c2n1CC(C)(C)O
(IV) CC(C)Cn1cnc2c(N)nc3ccccc3c21 [IMIQUIMOD]
query: Hey, quick one: sort these by Activity, low to high? Show the ranking through the labels, in the order asked for.
result: II, IV, I, III
(II: 13 pg/mL, IV: 19 pg/mL, I: 108 pg/mL, III: 1010 pg/mL)

(a) CCOCc1nc2c(N)nc3ccccc3c2n1CC(C)(C)O
(b) CCc1nc2c(N)nc3cc(C(=O)OC)ccc3c2n1CC(C)(C)O
query: Given a and given b , which shows the smaller recorded Activity? Could you answer with the label of the item you picked?
result: b
(b: 11 pg/mL, a: 16 pg/mL)

(A) CCCc1nc2c(N)nc3cc(C(=O)OC)ccc3c2n1CC(C)(C)O
(B) CCCCc1nc2c(N)nc3cc(C(=O)OC)ccc3c2n1CCO
(C) CCCCc1nc2c(N)nc3cc(C(=O)OC)ccc3c2n1CCOC
query: Output the entries ranked by Activity from maximum down to minimum. Form field (ranking): labels in requested order.
result: C, B, A

---

Target System: TLR7 and TLR8 (Mus musculus) (UniProt P58681+P58682)
Assay Name: Agonist activity at TLR7/TLR8 in C57BL/6 mouse BMDC assessed as induction of IL-12p40 production at 30 uM after 3 days by flow cytometric analysis
Assay type: protein assay
Observable: Activity (pg/mL)

(1) CC(C)Cn1cnc2c(N)nc3ccccc3c21 [IMIQUIMOD]
(2) COC(=O)c1ccc2c(c1)nc(N)c1nc(C)n(CC(C)(C)O)c12
query: Looking at recorded values for Activity, does 1 or 2 come in lower? # answer = label of selected item
result: 2

(I) CCc1nc2c(N)nc3cc(C(=O)OC)ccc3c2n1CC(C)(C)O
(II) CCCCc1nc2c(N)nc3cc(C(=O)OC)ccc3c2n1CCOCc1ccccc1
query: Compare reported Activity values for I and II . Which is lower? Could you answer with the label of the item you picked?
result: I
(I: 78 pg/mL, II: 136 pg/mL)

(A) CCCCc1nc2c(N)nc3cc(C(=O)OC)ccc3c2n1CC(C)O (racemic)
(B) CCCCc1nc2c(N)nc3cc(C(=O)OC)ccc3c2n1CCOC
query: Lower value for measured Activity? Options: A , B Your answer should be the label of the entry you select.
result: B
(B: 267 pg/mL, A: 533 pg/mL)
